- System: soybean (Glycine max)
- TEST DETAILS: Test B pre-/postemergence plant response
- Format: in vivo
- PARTICULARS: Postemergence, 125 g ai/ha; visual rating after 13 to 15 days, scale 0 (no effect) to 100 (complete control)
ASSAY METRIC: Plant response rating, Soybean
Keep the answer to the number alone.

COMPOUND: O=C1CCCC(O)=C1C(=O)c1cnc(-c2ccccc2)n(-c2ccccc2F)c1=O [Compound 26]
ASSAYED SYSTEM: soybean (Glycine max)
Plant response rating, Soybean: 95
--
COMPOUND: CCCn1c(-c2cccs2)ncc(C(=O)C2=C(O)CCCC2=O)c1=O [Compound 77]
ASSAYED SYSTEM: soybean (Glycine max)
Plant response rating, Soybean: 70
--
COMPOUND: O=C1CCCC(O)=C1C(=O)c1cnc(-c2cccc(Cl)c2)n(-c2ccc(Cl)cc2)c1=O [Compound 64]
ASSAYED SYSTEM: soybean (Glycine max)
Plant response rating, Soybean: 98

**Q:** Param item = Cc1ccc(F)cc1-n1c(-c2ccccc2)ncc(C(=O)C2=C(O)CCCC2=O)c1=O [Compound 44] ; retrieve measured Plant response rating, Soybean.
**A:** 95

**Q:** Param item = Cc1ccc(-n2c(-c3ccccc3)ncc(C(=O)C3=C(O)CCCC3=O)c2=O)cc1 [Compound 8] ; retrieve measured Plant response rating, Soybean.
**A:** 98

These entries and their values trace back to patent US8952024B2.
